# assay info: Lipophilicity, log P of the compound
# Format: physicochemical
# measurement context: octanol/water
Below, each of the compounds is paired with its reported logP value.
Please give only the number in your answer, with no unit.

* CN(CCCCCCCOc1ccc(-c2cc3ccccc3o2)cc1)Cc1ccccc1 | 6.8

Let's switch to this compound now.
"CN(CCCCCCCOc1ccc(-c2oc3ccccc3c2C(=O)c2ccccc2)cc1)Cc1ccccc1" yielded logP of 8

---

# assay info: Inhibition of Amyloid beta 25-35 fibril formation
experimental endpoint: pIC50
Lab note: report pIC50 as minus log10 of the concentration in molar units, number only.

Below: 3 compounds and their reported pIC50.
* COc1cc(/C=C/C(=O)CC(=O)/C=C/c2ccc(O)c(OC)c2)ccc1O [CURCUMIN] | 5.00
* Cc1ccc(C(=O)c2c(-c3ccc(OCCCCCCCN(C)Cc4ccccc4)cc3)oc3ccccc23)cc1 | 4.89
* CN(CCCCCCCOc1ccc(-c2cc3ccccc3o2)cc1)Cc1ccccc1 | 5.15

"CN(CCCCCCCOc1ccc(-c2oc3ccccc3c2C(=O)c2ccccc2)cc1)Cc1ccccc1" yielded pIC50 of 4.90

---

# assay system: Acetylcholinesterase (Homo sapiens)
# Sequence (P22303 whole entry): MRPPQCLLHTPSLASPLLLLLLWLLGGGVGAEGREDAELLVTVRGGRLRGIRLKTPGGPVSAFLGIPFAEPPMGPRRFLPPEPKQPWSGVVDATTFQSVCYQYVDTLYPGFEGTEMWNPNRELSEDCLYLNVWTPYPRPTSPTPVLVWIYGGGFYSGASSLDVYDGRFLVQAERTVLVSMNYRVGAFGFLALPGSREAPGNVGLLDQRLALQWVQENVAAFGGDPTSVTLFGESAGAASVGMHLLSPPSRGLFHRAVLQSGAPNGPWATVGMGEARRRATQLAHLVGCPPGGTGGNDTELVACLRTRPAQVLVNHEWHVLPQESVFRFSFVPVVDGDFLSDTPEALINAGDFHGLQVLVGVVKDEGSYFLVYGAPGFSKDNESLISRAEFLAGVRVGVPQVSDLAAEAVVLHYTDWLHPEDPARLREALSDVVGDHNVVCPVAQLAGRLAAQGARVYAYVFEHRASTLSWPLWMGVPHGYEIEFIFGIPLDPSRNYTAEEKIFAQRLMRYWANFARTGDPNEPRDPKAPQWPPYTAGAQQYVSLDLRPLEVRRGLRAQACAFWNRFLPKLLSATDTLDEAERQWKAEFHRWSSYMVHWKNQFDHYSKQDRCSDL
# assay info: Inhibition of human recombinant AchE after 20 mins by Ellman's method
experimental endpoint: IC50 (µM)
Only the number, expressed in µM, is required.

• Cc1cccc(C(=O)c2c(-c3ccc(OCCCCCCCN(C)Cc4ccccc4)cc3)oc3ccccc23)c1 = 127

"CN(CCCCCCCOc1ccc(-c2cc3ccccc3o2)cc1)Cc1ccccc1" yielded IC50 of 32.6

"CN(CCCCCCCOc1ccc(-c2oc3ccccc3c2C(=O)c2ccccc2)cc1)Cc1ccccc1" yielded IC50 of 40.7

"COc1ccc(C(=O)c2c(-c3ccc(OCCCCCCCN(C)Cc4ccccc4)cc3)oc3ccccc23)cc1OC" yielded IC50 of 177

"CC(=O)c1c(-c2ccc(OCCCCCCCN(C)Cc3ccccc3)cc2)oc2ccccc12" yielded IC50 of 17.4

---

# assay system: Acetylcholinesterase (Homo sapiens)
# assay info: Inhibition of human recombinant AchE after 20 mins by Ellman's method
experimental endpoint: IC50 (µM)
Only the number, expressed in µM, is required.

Below: 2 compounds and their reported IC50.
• COc1ccc(C(=O)c2c(-c3ccc(OCCCCCCCN(C)Cc4ccccc4)cc3)oc3ccccc23)cc1 = 281
• Cc1ccc(C(=O)c2c(-c3ccc(OCCCCCCCN(C)Cc4ccccc4)cc3)oc3ccccc23)cc1 = 10.5

Let's switch to this compound now.
"COc1cccc(C(=O)c2c(-c3ccc(OCCCCCCCN(C)Cc4ccccc4)cc3)oc3ccccc23)c1" yielded IC50 of 127

---

Below, each of the compounds is paired with its reported log10(IC50) value.
# assay system: Cholinesterase (Homo sapiens)
# Sequence (P06276 whole entry): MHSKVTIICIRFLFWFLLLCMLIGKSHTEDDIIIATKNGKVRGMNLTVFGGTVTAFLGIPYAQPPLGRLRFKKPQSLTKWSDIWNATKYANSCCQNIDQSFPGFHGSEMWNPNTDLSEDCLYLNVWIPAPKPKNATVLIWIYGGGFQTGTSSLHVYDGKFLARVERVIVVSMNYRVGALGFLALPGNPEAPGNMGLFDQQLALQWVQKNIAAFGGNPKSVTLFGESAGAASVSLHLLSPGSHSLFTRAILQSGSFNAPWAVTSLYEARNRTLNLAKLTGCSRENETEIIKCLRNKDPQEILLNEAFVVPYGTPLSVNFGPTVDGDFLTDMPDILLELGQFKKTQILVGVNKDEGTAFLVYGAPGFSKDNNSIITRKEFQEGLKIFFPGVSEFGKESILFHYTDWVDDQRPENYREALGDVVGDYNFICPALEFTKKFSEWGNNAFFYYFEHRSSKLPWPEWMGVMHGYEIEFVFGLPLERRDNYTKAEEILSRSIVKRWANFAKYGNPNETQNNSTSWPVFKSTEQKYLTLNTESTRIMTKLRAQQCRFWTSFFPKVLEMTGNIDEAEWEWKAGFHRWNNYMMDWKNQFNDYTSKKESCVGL
# assay info: Inhibition of human serum BuchE after 20 mins by Ellman's method
Scale: log10; quantity: IC50; unit before log: µM

Below: 5 compounds and their reported log10(IC50).
* COc1ccc(C(=O)c2c(-c3ccc(OCCCCCCCN(C)Cc4ccccc4)cc3)oc3ccccc23)cc1 | 1.95
* CC(=O)c1c(-c2ccc(OCCCCCCCN(C)Cc3ccccc3)cc2)oc2ccccc12 | 0.26
* CN(CCCCCCCOc1ccc(-c2cc3ccccc3o2)cc1)Cc1ccccc1 | -0.55
* COc1cccc(C(=O)c2c(-c3ccc(OCCCCCCCN(C)Cc4ccccc4)cc3)oc3ccccc23)c1 | 1.34
* Cc1ccc(C(=O)c2c(-c3ccc(OCCCCCCCN(C)Cc4ccccc4)cc3)oc3ccccc23)cc1 | 0.26

"COc1ccc(C(=O)c2c(-c3ccc(OCCCCCCCN(C)Cc4ccccc4)cc3)oc3ccccc23)cc1OC" yielded log10(IC50) of 1.87

"Cc1cccc(C(=O)c2c(-c3ccc(OCCCCCCCN(C)Cc4ccccc4)cc3)oc3ccccc23)c1" yielded log10(IC50) of 1.61

"CN(CCCCCCCOc1ccc(-c2oc3ccccc3c2C(=O)c2ccccc2)cc1)Cc1ccccc1" yielded log10(IC50) of 1.58
